# reported EC50; entries follow
# System: HCV genotype 1a (H77 strain) replicon in HUH-7 cells
# Protocol: HCV replicon luciferase reporter assay, genotype 1a
# Type: cell-based
# Test conditions: Hepatitis C virus, Huh-7, 72 h, HCV genotype 1a replicon luciferase, 3 days incubation, read-out: LE_1a (EC50)

# count of solved cases: 3
CCCOc1cnc(O[C@@H]2C[C@H]3C(=O)N[C@]4(C(=O)NS(=O)(=O)C5(C)CC5)C[C@H]4/C=C\CC[C@H](C)C[C@@H](C)[C@H](NC(=O)NC(C)(C)C(F)(F)F)C(=O)N3C2)c2ccccc12	411 nM
CCn1nc(O[C@@H]2C[C@H]3C(=O)N[C@]4(C(=O)NS(=O)(=O)C5(C)CC5)C[C@H]4/C=C\CC[C@H](C)C[C@@H](C)[C@H](NC(=O)c4ccc(N(C)C)cc4)C(=O)N3C2)c2ccccc2c1=O	≥ 1000 nM
COc1cc2ccccc2c(O[C@@H]2C[C@H]3C(=O)N[C@]4(C(=O)NS(=O)(=O)C5CC5)C[C@H]4/C=C\CC[C@@H](C)C[C@@H](C)[C@H](NC(=O)OC(C)(C)C(C)(F)F)C(=O)N3C2)n1	0.53 nM

Here's the next entry for you.
# input Using the record for "C[C@H]1CC/C=C\[C@@H]2C[C@@]2(C(=O)NS(=O)(=O)C2CC2)NC(=O)[C@@H]2C[C@@H](Oc3nccc4c5c(ccc34)OC(F)(F)O5)CN2C(=O)[C@@H](NC(=O)OC(C)(C)C)[C@H](C)C1" , state its measured EC50.
# output 20.9 nM

###

# System: HCV genotype 1b (Con1) replicon in HUH-7 cells
# Protocol: HCV replicon luciferase reporter assay, genotype 1b
# Format: cell-based
# Test conditions: Hepatitis C virus, Huh-7, 72 h, HCV genotype 1b replicon luciferase, 3 days incubation, read-out: LE_1b (EC50, range)
Recorded endpoint: EC50

Example entries and their recorded answers appear below.
CCCOc1cnc(O[C@@H]2C[C@H]3C(=O)N[C@]4(C(=O)NS(=O)(=O)C5(C)CC5)C[C@H]4/C=C\CC[C@H](C)C[C@@H](C)[C@H](NC(=O)NC(C)(C)C(F)(F)F)C(=O)N3C2)c2ccccc12	> 87.4 nM
COc1ccc2c(O[C@@H]3C[C@H]4C(=O)N[C@]5(C(=O)NS(=O)(=O)C6CC6)C[C@H]5/C=C\CC[C@H](C)C[C@@H](C)[C@H](NC(=O)OC(C)(C)C(F)(F)F)C(=O)N4C3)nc(-c3ccc(N4CCOCC4)cc3)cc2c1	< 5.46 nM
CCCOc1cnc(O[C@@H]2C[C@H]3C(=O)N[C@]4(C(=O)NS(=O)(=O)C5CC5)C[C@H]4/C=C\CC[C@@H](C)C[C@@H](C)[C@H](NC(=O)OC(C)(C)C)C(=O)N3C2)c2ccccc12	< 5.46 nM

We next turn to a different molecule, shown below.
# input Using the record for "COc1ccc2c(O[C@@H]3C[C@H]4C(=O)N[C@]5(C(=O)NS(=O)(=O)C6(F)CC6)C[C@H]5/C=C\CC[C@@H](C)C[C@@H](C)[C@H](NC(=O)OCC(C)(C)C)C(=O)N4C3)nccc2c1" , state its measured EC50.
# output < 5.46 nM

###

# Test system: HCV genotype 1b (Con1) replicon in HUH-7 cells
# Protocol: HCV replicon luciferase reporter assay, genotype 1b
# Assay type: cell-based
# Test conditions: Hepatitis C virus, Huh-7, 72 h, HCV genotype 1b replicon luciferase, 3 days incubation, read-out: LE_1b (EC50, range)
Recorded endpoint: EC50

C[C@@H]1CC/C=C\[C@@H]2C[C@@]2(C(=O)NS(=O)(=O)C2(CF)CC2)NC(=O)[C@@H]2C[C@@H](Oc3nccc4c5c(ccc34)CCCO5)CN2C(=O)[C@@H](NC(=O)OC(C)(C)C(F)(F)F)[C@H](C)C1	1.01 to 5 nM

Alright, here's another compound for you.
# input Provide EC50 value for the following compound: "CC[C@@H]1C[C@H](C)CC/C=C\[C@@H]2C[C@@]2(C(=O)NS(=O)(=O)C2(C)CC2)NC(=O)[C@@H]2C[C@@H](Oc3nc(OC)cc4cc(F)ccc34)CN2C(=O)[C@H]1NC(=O)OC(C)(C)C(C)(F)F"
# output 0.1 to 0.5 nM
